test system: SET-2 cells; assay: Anti-proliferative assay in SET-2 cells (CellTiter 96 Aqueous); format: cell-based, Human; details: 3 days
Readout Label: IC50 (nM)
// note: answer is a bare numeric in nM

Reading of IC50 for COCCOCc1cc(Nc2ncc(C)c(Nc3cccc(S(=O)(=O)NC(C)(C)C)c3)n2)ccc1OCCN1CCCC1 with SET-2 cells: 645

---

assay: Pharmacokinetics in mice after oral MMT3-72 (LC-MS/MS of plasma, GI tissues, GI content); format: in vivo, C57BL/6 female mice; details: female, C57BL/6, mouse, colon tissue and small intestinal tissues, oral 10 mg/kg MMT3-72, read-out: Cmax in colon tissue and small intestinal tissues
Readout Label: Cmax

Briefly, Cmax measured for Cc1cnc(Nc2ccc(OCCO)cc2)nc1Nc1cccc(S(=O)(=O)NC(C)(C)C)c1 [MMT3-72-M2] : > 1500 ng/g

---

experiment: Pharmacokinetics in mice after oral MMT3-72 (LC-MS/MS of plasma, GI tissues, GI content); format: in vivo, C57BL/6 female mice; details: female, C57BL/6, mouse, GI content (stomach, small intestine and colon content), oral 10 mg/kg MMT3-72, read-out: Cmax in GI content (stomach, small intestine and colon content)
Readout Label: Cmax

Record summary for Cc1cnc(Nc2ccc(OCCOc3ccc(/N=N/c4ccc(C(=O)NCCC(=O)O)cc4)cc3C(=O)O)cc2)nc1Nc1cccc(S(=O)(=O)NC(C)(C)C)c1 [MMT3-72] : reported Cmax = > 50000 ng/g

---

biological target: JAK3 (Homo sapiens (Human))
Sequence (P52333 whole entry): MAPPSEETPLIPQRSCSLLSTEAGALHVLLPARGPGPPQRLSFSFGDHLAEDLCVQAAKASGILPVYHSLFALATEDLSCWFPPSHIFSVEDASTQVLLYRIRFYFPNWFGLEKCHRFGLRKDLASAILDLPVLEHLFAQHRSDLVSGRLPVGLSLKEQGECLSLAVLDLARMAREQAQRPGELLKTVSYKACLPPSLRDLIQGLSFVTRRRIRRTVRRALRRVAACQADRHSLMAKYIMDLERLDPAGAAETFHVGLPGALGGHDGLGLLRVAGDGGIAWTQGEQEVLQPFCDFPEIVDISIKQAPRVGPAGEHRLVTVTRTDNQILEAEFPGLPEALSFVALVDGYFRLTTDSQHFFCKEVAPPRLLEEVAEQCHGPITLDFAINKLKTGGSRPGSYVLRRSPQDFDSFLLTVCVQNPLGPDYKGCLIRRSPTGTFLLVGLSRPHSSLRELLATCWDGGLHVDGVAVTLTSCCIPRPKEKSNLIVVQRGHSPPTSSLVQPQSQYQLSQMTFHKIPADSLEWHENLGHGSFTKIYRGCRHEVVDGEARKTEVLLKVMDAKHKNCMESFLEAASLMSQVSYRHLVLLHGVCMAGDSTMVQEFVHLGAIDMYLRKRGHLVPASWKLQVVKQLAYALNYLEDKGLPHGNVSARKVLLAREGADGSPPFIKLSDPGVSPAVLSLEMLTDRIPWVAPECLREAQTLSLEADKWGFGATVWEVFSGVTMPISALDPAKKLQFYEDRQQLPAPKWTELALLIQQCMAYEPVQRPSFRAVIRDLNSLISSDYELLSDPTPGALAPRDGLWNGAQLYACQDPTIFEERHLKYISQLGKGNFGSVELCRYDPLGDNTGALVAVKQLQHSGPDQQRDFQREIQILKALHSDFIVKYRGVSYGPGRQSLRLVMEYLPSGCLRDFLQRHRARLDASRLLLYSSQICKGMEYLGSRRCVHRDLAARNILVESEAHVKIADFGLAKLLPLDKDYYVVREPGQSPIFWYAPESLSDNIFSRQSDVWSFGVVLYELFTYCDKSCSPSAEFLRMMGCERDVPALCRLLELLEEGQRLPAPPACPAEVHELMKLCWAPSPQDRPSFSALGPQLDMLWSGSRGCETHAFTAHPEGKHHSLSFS
Readout Label: pIC50
The value called pIC50 is obtained by taking minus log10 of the concentration in mol/L.

The recorded pIC50 for Cc1cnc(Nc2ccc(OCCO)cc2)nc1Nc1cccc(S(=O)(=O)NC(C)(C)C)c1 is 6.15

---

assay: Pharmacokinetics in mice after oral MMT3-72 (LC-MS/MS of plasma, GI tissues, GI content); format: in vivo, C57BL/6 female mice; conditions: female, C57BL/6, mouse, plasma, oral 10 mg/kg MMT3-72, read-out: Cmax in plasma
Readout Label: Cmax (ng/mL)
Reply with just the number (in ng/mL).

The recorded Cmax for entry Cc1cnc(Nc2ccc(OCCO)cc2)nc1Nc1cccc(S(=O)(=O)NC(C)(C)C)c1 equals 8

---

molecular target: UniProt P29597
Sequence (P29597 whole entry): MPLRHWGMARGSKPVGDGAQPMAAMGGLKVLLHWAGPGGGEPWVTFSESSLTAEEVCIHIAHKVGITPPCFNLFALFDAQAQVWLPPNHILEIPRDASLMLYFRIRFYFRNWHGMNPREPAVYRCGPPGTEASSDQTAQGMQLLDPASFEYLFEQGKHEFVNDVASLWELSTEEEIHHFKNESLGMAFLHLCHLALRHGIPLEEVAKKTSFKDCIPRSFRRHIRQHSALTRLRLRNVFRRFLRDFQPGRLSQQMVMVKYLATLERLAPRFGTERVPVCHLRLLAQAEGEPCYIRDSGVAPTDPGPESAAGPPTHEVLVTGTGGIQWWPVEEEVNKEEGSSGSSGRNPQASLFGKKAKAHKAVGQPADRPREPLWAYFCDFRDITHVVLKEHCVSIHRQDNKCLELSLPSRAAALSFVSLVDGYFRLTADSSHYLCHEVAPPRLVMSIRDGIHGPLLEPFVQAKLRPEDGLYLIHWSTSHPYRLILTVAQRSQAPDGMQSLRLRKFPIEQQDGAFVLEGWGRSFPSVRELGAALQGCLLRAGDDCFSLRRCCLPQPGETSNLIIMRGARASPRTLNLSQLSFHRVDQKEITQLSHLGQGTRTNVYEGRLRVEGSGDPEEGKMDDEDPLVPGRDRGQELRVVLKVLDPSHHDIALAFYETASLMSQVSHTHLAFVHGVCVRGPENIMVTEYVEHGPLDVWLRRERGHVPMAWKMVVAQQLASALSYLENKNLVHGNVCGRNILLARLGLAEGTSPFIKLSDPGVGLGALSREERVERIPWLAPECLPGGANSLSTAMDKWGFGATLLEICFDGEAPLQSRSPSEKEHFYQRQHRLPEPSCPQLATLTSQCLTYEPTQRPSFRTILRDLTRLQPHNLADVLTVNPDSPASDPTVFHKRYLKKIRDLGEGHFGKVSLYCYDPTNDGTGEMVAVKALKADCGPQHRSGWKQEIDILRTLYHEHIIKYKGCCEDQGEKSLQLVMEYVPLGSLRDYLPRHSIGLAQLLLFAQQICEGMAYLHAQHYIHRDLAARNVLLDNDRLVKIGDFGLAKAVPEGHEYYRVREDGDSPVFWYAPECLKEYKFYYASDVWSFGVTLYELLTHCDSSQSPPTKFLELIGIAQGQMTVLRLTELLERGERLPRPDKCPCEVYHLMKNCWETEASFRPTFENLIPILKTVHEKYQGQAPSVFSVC
Readout Label: IC50
Quote the value and follow it with the unit of measurement.

For Cc1cnc(Nc2ccc(OCCOc3ccc(/N=N/c4ccc(C(=O)NCCC(=O)O)cc4)cc3C(=O)O)cc2)nc1Nc1cccc(S(=O)(=O)NC(C)(C)C)c1 [MMT3-72] the compound record lists IC50 as 2980 nM

---

experiment: Pharmacokinetics in mice after oral MMT3-72 (LC-MS/MS of plasma, GI tissues, GI content); type: in vivo, C57BL/6 female mice; conditions: female, C57BL/6, mouse, small and large intestine tissues, oral 10 mg/kg MMT3-72, at 24 hrs, read-out: Cmin in small and large intestine tissues
Readout Label: concentration at 24 h (ng/mL)
Hi! Could you send only the number? It should be in ng/mL, unit omitted.

Entry under test: Cc1cnc(Nc2ccc(OCCO)cc2)nc1Nc1cccc(S(=O)(=O)NC(C)(C)C)c1 [MMT3-72-M2] . Its concentration at 24 h was 88.5

All figures here come from patent US20250257069A1.
